Target: T1, IL-4Rα on TF-1 cells (human, UniProt P24394 26-825)
T1 sequence (looked up): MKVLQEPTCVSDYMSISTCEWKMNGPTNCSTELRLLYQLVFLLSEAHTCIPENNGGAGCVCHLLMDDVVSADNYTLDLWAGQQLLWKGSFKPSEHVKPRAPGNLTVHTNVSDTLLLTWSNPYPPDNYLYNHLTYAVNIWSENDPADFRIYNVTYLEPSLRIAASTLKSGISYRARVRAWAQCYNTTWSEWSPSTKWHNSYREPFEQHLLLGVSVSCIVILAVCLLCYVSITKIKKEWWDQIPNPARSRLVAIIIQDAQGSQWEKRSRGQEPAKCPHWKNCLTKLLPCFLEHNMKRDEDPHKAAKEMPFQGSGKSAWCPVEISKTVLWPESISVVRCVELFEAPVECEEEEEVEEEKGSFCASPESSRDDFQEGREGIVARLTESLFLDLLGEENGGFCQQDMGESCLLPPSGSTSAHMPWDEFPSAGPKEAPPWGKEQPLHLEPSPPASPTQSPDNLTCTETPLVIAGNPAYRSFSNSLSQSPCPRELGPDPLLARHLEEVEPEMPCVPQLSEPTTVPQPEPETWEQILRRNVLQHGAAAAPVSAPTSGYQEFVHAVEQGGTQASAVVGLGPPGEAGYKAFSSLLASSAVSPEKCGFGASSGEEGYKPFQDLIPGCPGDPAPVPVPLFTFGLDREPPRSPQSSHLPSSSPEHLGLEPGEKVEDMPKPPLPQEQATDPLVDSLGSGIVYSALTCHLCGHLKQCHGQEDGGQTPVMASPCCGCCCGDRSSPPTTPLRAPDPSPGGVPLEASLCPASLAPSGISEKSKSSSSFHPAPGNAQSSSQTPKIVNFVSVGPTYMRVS
Experiment: cell-based or functional assay
The entries below are paired with their reported Inhibitory rate on pro-proliferative effect of IL-4.

[
  {
    "Binder": "L1024H1031 (antibody, V domains shown, human kappa) VH: EVQLVESGGGLVQPGGSLRLSCAASGFTFSRNAMFWVRQAPGKGLEWVSGIGTGGATSYADSVKGRFTISRDNAKNSLYLQMNSLRAEDTAVYYCARGRYYFDYWGQGTLVTVSS VL: EIVLTQSPGTLSLSPGERATLSCRASQSVSNSYLAWYQQKPGQAPRLLIFGASSRAPGIPDRFSGSGSGTDFTLTISRLEPEDFAVYYCQQYDHSAGWTFGQGTKVEIK",
    "Result": 1.01
  },
  {
    "Binder": "L1021H1016 (antibody, V domains shown, human kappa) VH: EVQLVQSGGGLVHPGGSLRLSCAGSGFTFSRNAMFWVRQAPGKGLEWVSGIGTGGATNYADSVKGRFTISRDNAKNSLYLQMNSLRAEDMAVYYCARGRYYFPWWGQGTLVTVSS VL: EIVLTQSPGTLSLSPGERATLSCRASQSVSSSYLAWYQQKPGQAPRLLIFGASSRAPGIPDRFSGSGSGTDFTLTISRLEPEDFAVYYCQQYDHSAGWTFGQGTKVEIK",
    "Result": 1
  }
]

Kindly review the next binder as well.
Prompt line: // lookup Inhibitory rate on pro-proliferative effect of IL-4 for L1021H1007 (antibody, V domains shown, human kappa) VH: EVQLVQSGGGLVHPGGSLRLSCAGSGFTFSRNAMFWVRQAPGKGLEWVSGIGTGGATSYADSVKGRFTISRDNAKNSLYLQMNSLRAEDMAVYYCARGRYYFDYWGQGTLVTVSS VL: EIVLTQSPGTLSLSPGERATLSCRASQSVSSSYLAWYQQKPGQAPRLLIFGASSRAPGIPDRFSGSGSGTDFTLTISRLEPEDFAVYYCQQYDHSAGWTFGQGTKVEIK
Response line: 1
